pIC50: −log10 of the molar value.
Reported pIC50 for target or system DDR2 (Homo sapiens, UniProt Q16832), by entry.

1. CC(C)[C@H]1CN(c2cncnc2)Cc2cc(C(=O)Nc3cc(CN4CCN(C)CC4)cc(C(F)(F)F)c3)ccc21    < 5.00
2. CC[C@H]1CN(c2cncnc2)Cc2cc(C(=O)Nc3cc(CN4CCN(C)CC4)cc(C(F)(F)F)c3)ccc21    6.26

List reported pIC50 for each of these molecules:
1. CC[C@@H]1CN(c2cncnc2)Cc2cc(C(=O)Nc3cc(CN4CCN(C)CC4)cc(C(F)(F)F)c3)ccc21
2. CN1CCN(Cc2cc(NC(=O)c3ccc4c(c3)CN(c3cncnc3)CC4)cc(C(F)(F)F)c2)CC1

< 5.00
< 5.10

Every entry's value here was drawn from paper PMC5053573.
